# ASSAYED SYSTEM: T1, CaBdf1 BD1 (GST-tagged, wild-type) (Candida albicans (strain SC5314 / ATCC …, UniProt Q5A4W8))
# T1 chain: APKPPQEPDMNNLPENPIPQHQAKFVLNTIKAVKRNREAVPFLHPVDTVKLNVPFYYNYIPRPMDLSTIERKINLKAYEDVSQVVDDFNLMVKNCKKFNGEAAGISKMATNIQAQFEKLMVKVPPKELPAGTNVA
# EXPERIMENT SUMMARY: histone peptide array (Active Motif MODified), 1 uM GST-tagged bromodomain, anti-GST detection, normalized mean intensity
Numbered stars: 1 amine (or outer) side, 2 acyl side, 3 side chain; on linkers, the order of the positions; unused ones are H or OH. Square brackets hold non-standard residues; d marks the D form. Ends that are not written are not given here. Arg(Me2a) = CN(C)C(=N)NCCC[C@H](N)C(=O)O; Kac = CC(=O)NCCCC[C@H](N[*:1])C(=O)[*:2]; Arg(Me2s) = CN=C(NC)NCCC[C@H](N)C(=O)O; Lys(Me2) = CN(C)CCCC[C@H](N)C(=O)O; pS = N[C@@H](COP(=O)(O)O)C(=O)O; Lys(Me) = CNCCCC[C@H](N)C(=O)O
Please enter true where binding score is greater than or equal to 0.008, and false where it is lower.

Incoming: Determine whether measured binding score meets or exceeds 0.008 for ART[Kac]QTA[Arg(Me2a)][Lys(Me2)]STGGKAPRKQ
Outgoing: false

Incoming: Determine whether measured binding score meets or exceeds 0.008 for ARTK(Me)QTAR(me2s)K(Me)STGGKAPRKQ
Outgoing: false

Incoming: Determine whether measured binding score meets or exceeds 0.008 for ARTKQTARKSTGGKAPRKQ (A R T K Q T A Rme2s Kme3 S pT G G K A P R K Q)
Outgoing: false

Incoming: Determine whether measured binding score meets or exceeds 0.008 for A[Arg(Me2s)]T[Lys(Me2)]QTA[Arg(Me2a)][Lys(Me)]STGGKAPRKQ
Outgoing: false

Incoming: Determine whether measured binding score meets or exceeds 0.008 for PRKQLATKAARK(Me3)[pS]APATGG [H3 16-35]
Outgoing: false

Incoming: Determine whether measured binding score meets or exceeds 0.008 for SGRGKGGKGLGKGGAKRHR (S G R G Kac G G K G L G K G G A K R H R)
Outgoing: true

Incoming: Determine whether measured binding score meets or exceeds 0.008 for ARTKQTARKSTGGKAPRKQ (A R T K Q T A R K pS pT G G K A P R K Q)
Outgoing: false

Incoming: Determine whether measured binding score meets or exceeds 0.008 for PDPAKSAPAPKKG[pS]K(Ac)KAVT
Outgoing: true

Incoming: Determine whether measured binding score meets or exceeds 0.008 for ARTKQTARKSTGGKAPRKQ (A Rme2s T Kme3 Q T A R K S T G G K A P R K Q)
Outgoing: false

Incoming: Determine whether measured binding score meets or exceeds 0.008 for PDPAK(Ac)SAPAPKKG[pS]K(Ac)KAVT
Outgoing: true

Incoming: Determine whether measured binding score meets or exceeds 0.008 for SGRGKGGKGLGKGGAKRHR (pS G Rme2a G Kac G G Kac G L G K G G A K R H R)
Outgoing: true

Incoming: Determine whether measured binding score meets or exceeds 0.008 for PDPAKSAPAPKKGSKKAVT (not fully specified)
Outgoing: false

Incoming: Determine whether measured binding score meets or exceeds 0.008 for ARTKQTA[Arg(Me2a)]K(Ac)[pS]TGGKAPRKQ
Outgoing: false
